assay: log P measured by the procedure of Donovan and Pescatore, internally standardized with toluene and triphenylene; type: physicochemical; details: pH 2, pH = 2; based on logP assigned to toluene 2.605 and triphenylene 6.266; read-out: logP, Average
ENDPOINT: chromatographic logP
Note: the reply should be a number with no unit written.

Guide cases for chromatographic logP, answers given:
CCSC(C)CC1CC(=O)C(/C(CC)=N/OC/C=C/Cl)=C(O)C1 (centres unmarked): 4.25
CSC(=O)c1c(C(F)F)nc(C(F)(F)F)c(C(=O)SC)c1CC(C)C: 4.32
O=[N+]([O-])c1c(Cl)c(Cl)c(Cl)c(Cl)c1Cl: 5.39
O=C(Nc1ccc(F)cc1F)c1cccnc1Oc1cccc(C(F)(F)F)c1: 4.81
O=[N+]([O-])c1cc(C(F)(F)F)c(Cl)c([N+](=O)[O-])c1Nc1ncc(C(F)(F)F)cc1Cl: 5.03
COC(=O)N(OC)c1ccccc1COc1ccn(-c2ccc(Cl)cc2)n1: 4.53
CC(C)(C)C(O)(CCc1ccc(Cl)cc1)Cn1cncn1 (centres unmarked): 3.44
CCOC(=O)C(Cl)Cc1cc(-n2nc(C)n(C(F)F)c2=O)c(F)cc1Cl (centres unmarked): 3.99
CCCC1COC(Cn2cncn2)(c2ccc(Cl)cc2Cl)O1 (centres unmarked): 3.3
CCCCCCCC(=O)Oc1c(I)cc(C#N)cc1I [Ioxynil Octanoate]: 5.67

For the next question, use this molecule.
Lookup: Recorded chromatographic logP for CCCCC(C#N)(Cn1cncn1)c1ccc(Cl)cc1 (centres unmarked) , please?
Found: 2.44

* * *

experiment: log P measured by the procedure of Donovan and Pescatore, internally standardized with toluene and triphenylene; format: physicochemical; settings: pH 2, logP, Average
ENDPOINT: chromatographic logP
Note: the reply should be a number with no unit written.

Guide cases for chromatographic logP, answers given:
CCCCOC(=O)C(C)Oc1ccc(Oc2ccc(C(F)(F)F)cn2)cc1 (centres unmarked): 4.44
OC(Cn1cncn1)(c1ccc(F)cc1)c1ccccc1F (centres unmarked): 2.12

Lookup: Recorded chromatographic logP for CCCOC/C(=N\c1ccc(Cl)cc1C(F)(F)F)n1ccnc1 , please?
Found: 2.6

Lookup: Recorded chromatographic logP for CCCCOCN(C(=O)CCl)c1c(CC)cccc1CC , please?
Found: 4.12

Lookup: Recorded chromatographic logP for CCCCC(O)(Cn1cncn1)c1ccc(Cl)cc1Cl (centres unmarked) , please?
Found: 3.35

* * *

test: log P measured by the procedure of Donovan and Pescatore, internally standardized with toluene and triphenylene; type: physicochemical; conditions: pH 7, pH = 7; based on logP assigned to toluene 2.605 and triphenylene 6.266; read-out: logP, Average
Flag rule - chromatographic logP less than 4 flags true (1); the remaining entries get false (0).

CC(C)(C)C(O)(CCc1ccc(Cl)cc1)Cn1cncn1 (stereo not shown) [Tebuconazole]: true (1)
CCCCC(C#N)(Cn1cncn1)c1ccc(Cl)cc1 (stereo not shown) [Myclobutanil]: true (1)
O=C(Nc1ccc(F)cc1F)c1cccnc1Oc1cccc(C(F)(F)F)c1 [Diflufenican]: false (0)
O=[N+]([O-])c1c(Cl)c(Cl)c(Cl)c(Cl)c1Cl [Pentachloronitrobenzene]: false (0)
CCCC1COC(Cn2cncn2)(c2ccc(Cl)cc2Cl)O1 (stereo not shown) [Propiconazole]: true (1)

Turning now to a further compound:
Lookup: Answer whether the compound CSC(=O)c1c(C(F)F)nc(C(F)(F)F)c(C(=O)SC)c1CC(C)C [Dithiopyr] has chromatographic logP strictly less than 4
Found: false (0)
